tested_system: RSV F protein of subtype B (18537) on recombinant mKate-RSV virus (Respiratory syncytial virus subtype B …, UniProt P13843 26-574)
test_method_notes: cell-based or functional assay
Listed binders paired with reported Neut IC50 (µg/ml) subtype B

[
  {
    "binder": "ADI-18892 (antibody, V domains shown, full-length IgG from yeast) VH: QVQLVQSGAEVKEPGASVRVSCKASGYTFTSYGISWVRQAPGQGLEWMGWISAYNGNTNYAQKFQGRVTVTTDTSTSAAYMELRSLRSDDTAIYYCARDSFSLTGAGFPDYWGQGTLVTVSS VL: EIVMTQSPLSLPVTLGQPASISCRSSQSLVYSDGNTYLNWFQQRPGQSPRRLIYKVSNRDSGVPDRFSGSGSDTDFTLKISRVEAEDVGVYYCMQATQWPRTFGQGTKVEIK",
    "censoring_operator": "=",
    "Neut IC50 (µg/ml) subtype B, µg/mL": 0.117
  },
  {
    "binder": "ADI-18952 (antibody, V domains shown, full-length IgG from yeast) VH: QVQLVESGGGLVQPGGSLRLSCAASGFAFSNYAMSWVRQAPGKGLEWVSSVSGTGGTTYYADSVNGRFAISRENSRNTLYLQMDSLRVEDTATYYCAKDGLRDLSRVYYIDVWGKGATVTVSS VL: QSVLTQPASVSGSPGQSITISCTGTSRDIGSHDYVSWYQQHPGKAPKLIIYGVNNRPSGLSNRFSGSKSGNTASLTISGLQTEDEGDYYCSSYRNGNTLGVFGTGTKLTVL",
    "censoring_operator": "=",
    "Neut IC50 (µg/ml) subtype B, µg/mL": 2.75
  },
  {
    "binder": "ADI-18879 (antibody, V domains shown, full-length IgG from yeast) VH: EVQLLESGGEVKKPGASVKVSCRASGYTFRNYGLTWVRQAPGQGLEWMGWISAYNGNTNYAQKFQGRVTLTTDTSTSTAYMELRSLRSDDTAVYFCARDVPGHGAAFMDVWGTGTTVTVSS VL: DIQLTQSPLSLPVTLGQPASISCRSSQSLEASDTNIYLSWFQQRPGQSPRRLIYKISNRDSGVPDRFSGSGSGTHFTLRISRVEADDVAVYYCMQGTHWPPAFGQGTKVDIK",
    "censoring_operator": "=",
    "Neut IC50 (µg/ml) subtype B, µg/mL": 0.103
  },
  {
    "binder": "ADI-18887 (antibody, V domains shown, full-length IgG from yeast; also called Antibody Number 242; Ab # 242) VH: QVQLVQSGAEVKRPGSSVKVSCKASGGTFSSYALSWVRQAPGQGLEWIGGIIPMHRVTNYAQKFRGRVTISADTSTSTAYLEVNSLRVEDTAMYYCARVFFGTCGGASCFPSDLWGQGTLVTVSS VL: EIVLTQSPSFVSASVGDGVTITCRASQAISSYLAWYQQKPGQAPKLLIYAASTLQGGVPSRFSGSGSGTHFTLTISSLQPEDFATYYCQQLHSDFQTFGPGTKVEIK",
    "censoring_operator": ">",
    "Neut IC50 (µg/ml) subtype B, µg/mL": 10
  },
  {
    "binder": "ADI-18976 (antibody, V domains shown, full-length IgG from yeast) VH: EVQLVETGPGLVKPSETLSLTCTVSGDSISGYYWSWIRQSPGKGLEWIGYIYYRGSTDYNPSLKSRVTISVDTSKNQFSLKLSSVTAADTAVYYCARDNKHHDSGNYYAYFDHWGQGTLVTVSS VL: DIVMTQSPSSLSASVGDRVTITCRASQNINTFLNWYQHKPGKAPKLLIYGASRLQSGVPSRFTGSGSGTDFTLTISSLQPEDFATYSCQQSYTTRLTFGGGTKVEIK",
    "censoring_operator": "=",
    "Neut IC50 (µg/ml) subtype B, µg/mL": 10.6
  }
]
